Hey, just so you know, these numbers are from PubChem BioAssay (NCI).

tested on: LOX IMVI melanoma; experiment: NCI-60 one-dose screen, 48 h (100 = growth as untreated, 0 = no growth, -100 = all killed); settings: 10 µM unless noted
This is part of a sample that, as a whole, favours compounds with a hit. Of some 83,000 tested, about 20% had one in any assay.
Sorting guide: entries reporting growth beneath 10% go in the t pile, the rest go in the f pile.

>  <molecule>
CCc1nc2cc(/C=C/C(=O)NO)ccc2c(=O)n1CCc1ccc(F)cc1

>  <category>
t

$$$$
>  <molecule>
CC[n+]1c(/C=C/C=C2\N(C)c3ccccc3C2(C)C)sc2ccccc21

>  <category>
t

$$$$
>  <molecule>
C[C@@]1(C(=O)Nc2ccc(F)nc2)CCCN1c1nc(Nc2cc(C3CC3)[nH]n2)c2cccn2n1

>  <category>
t

$$$$
>  <molecule>
C=C1C[C@H](O)[C@H](Br)C(C)(C)[C@@]12CCC(C)=C(Cl)C2

>  <category>
t

$$$$
>  <molecule>
COC(=O)[C@H](Cc1ccccc1)NC(=O)[C@@H](OC)[C@@H]1Cc2cc3cc(OC4CC(OC5CC(O)C(O)C(C)O5)C(O)C(C)O4)c(C)c(O)c3c(O)c2C(=O)[C@H]1OC1CC(OC2CC(OC3CC(C)(O)C(O)C(C)O3)C(O)C(C)O2)C(O)C(C)O1 (some centres undefined)

>  <category>
t

$$$$
>  <molecule>
CN1CCN(c2ccc(C(=O)Nc3n[nH]c4ccc(Cc5cc(F)cc(F)c5)cc34)c(NC3CCOCC3)c2)CC1

>  <category>
t

$$$$
>  <molecule>
O=C1C=CC2(NN=C(c3ccccc3)N2c2ccc(Cl)cc2)c2cccc(O)c21 (centres undefined)

>  <category>
t

$$$$
>  <molecule>
Cc1cc(O)c2c(c1)C1OC(=O)CCCCCN1C1=C2C(=O)c2cccc(OC3CC(O)C(O)C(C)O3)c2C1=O (centres undefined)

>  <category>
f

$$$$
>  <molecule>
COc1cc2c3c(c1)nc(C)n3CCC2

>  <category>
f

$$$$
>  <molecule>
CCCCn1c(C)nc2ccc(Nc3nc(N4CCN(C)CC4)nc4nc[nH]c34)cc21

>  <category>
f

$$$$
>  <molecule>
COC(=O)c1[nH]cnc1/N=N/N(C)CCO

>  <category>
f

$$$$
>  <molecule>
Cn1ncc(Cl)c1-c1cc(C(=O)N[C@H](CN)Cc2ccc(F)c(F)c2)oc1Cl

>  <category>
t

$$$$
>  <molecule>
CC(=O)OC(C(=O)c1ccccc1)c1ccccc1 (centres undefined)

>  <category>
f

$$$$
>  <molecule>
Cc1cc(N2CCOCC2)nc(N(CCNc2ccnc3cc(Cl)ccc23)Cc2cccs2)n1

>  <category>
t

$$$$
>  <molecule>
CSC1=C(N)C(=O)c2[nH]cc(CO)c2C1=N

>  <category>
t

$$$$
>  <molecule>
C[C@@H](NC(=O)c1ncnc(N)c1Cl)c1ncc(C(=O)Nc2cc(C(F)(F)F)c(Cl)cn2)s1

>  <category>
f

$$$$
>  <molecule>
Cc1cc(-c2cc(OC(=O)c3ccccc3)ccc2Cl)cc2nnc(Nc3ccc(OCCN4CCCC4)cc3)nc12

>  <category>
f

$$$$
>  <molecule>
O=C(COc1ccc(/C=C2\Cc3ccc(Cl)cc3C2=O)cc1)Nc1nccs1

>  <category>
f

$$$$
>  <molecule>
N#CCNC(=O)c1ccc(-c2ccnc(Nc3ccc(N4CCOCC4)cc3)n2)cc1

>  <category>
t

$$$$
>  <molecule>
CNC(=O)c1cc(Oc2cccc3nc(Nc4ccc(Cl)c(F)c4)ccc23)ccn1

>  <category>
f

$$$$
>  <molecule>
COc1ccc(/C(C)=C(\c2ccc(Cl)cc2)c2ccc(OCCN3CCCCCC3)cc2)cc1

>  <category>
f

$$$$
>  <molecule>
Nc1ccc(S(=O)(=O)O)c2cc(S(=O)(=O)O)cc(O)c12

>  <category>
f

$$$$
>  <molecule>
CC(C)(C)c1nc(-c2cccc(NS(=O)(=O)c3c(F)cccc3F)c2F)c(-c2ccnc(N)n2)s1

>  <category>
f

$$$$
>  <molecule>
N#Cc1c(NC(=O)c2ccco2)[n+]([O-])c2cc(F)c(F)cc2[n+]1[O-]

>  <category>
f

$$$$
>  <molecule>
Cc1cc2c(-c3nc4ccccn4c3N)c(O)c(O)cc2c(O)c1-c1c(C)cc2c(-c3nc4ccccn4c3N)c(O)c(O)cc2c1O

>  <category>
t

$$$$
>  <molecule>
C=CCCCC(=O)CCC(=O)OCC1O[C@@H](O[C@@H]2C(O)[C@@H](OC(C)=O)C(C)O[C@H]2O[C@H](CC=C)CCCCC)C(O)[C@@H](OC(=O)/C(C)=C/C)[C@@H]1OC(=O)/C=C/c1ccccc1 (some centres undefined)

>  <category>
t

$$$$
>  <molecule>
CSc1nc2ncncc2[nH]1

>  <category>
f

$$$$
>  <molecule>
C=CC[n+]1c(/C=C2\Sc3ccccc3N2C)sc(-c2ccccc2)c1-c1ccccc1

>  <category>
f

$$$$
>  <molecule>
CNC(=O)c1c(C)oc2cc(Oc3ncnc4cc(OC)c(OC)cc34)ccc12

>  <category>
f

$$$$
>  <molecule>
N#Cc1c(-c2ccc(Cl)cc2)csc1NC(=O)Nc1cccc(C(F)(F)F)c1

>  <category>
t

$$$$
>  <molecule>
COC[C@@H](C)n1c(C2CCOCC2)nc2c1C1C=C(OC)C(c3c(C)noc3C)=CC1N=C2 (some centres undefined)

>  <category>
f

$$$$
>  <molecule>
O=C1/C(=C\c2cccc(OCCCCCOc3ccc(Cl)cc3)c2)N=C2SCCCN12

>  <category>
f

$$$$
>  <molecule>
C=CCn1c(=O)c2cnc(Nc3ccc(N4CCN(C)CC4)cc3)nc2n1-c1cccc(C(C)(C)O)n1

>  <category>
t

$$$$
>  <molecule>
Cc1cc(C(=O)NOCCO)c(Nc2ccc(I)cc2F)n(C)c1=O

>  <category>
f

$$$$
>  <molecule>
CCN(CC)CCOc1ccc(/C(=C(\C)c2ccc(Cl)cc2)c2ccc(Cl)cc2)cc1

>  <category>
f

$$$$
>  <molecule>
CC1(O)CCC(Nc2cc(-c3ccc(C(F)(F)F)cc3)c(C#N)c3nc4ccccc4n23)CC1 (centres undefined)

>  <category>
f

$$$$
>  <molecule>
COc1cc2c(cc1OCCCCCN1CCN(c3ncnc4ccccc34)CC1)N=CC1CCCN1C2=O (centres undefined)

>  <category>
t

$$$$
>  <molecule>
CN1CCN(CC(=O)Nc2ccc(-c3nc4ccccc4s3)cc2)CC1

>  <category>
t

$$$$
>  <molecule>
C/C(=C(/c1ccc(Cl)cc1)c1ccc(OCCN2CCCC2)cc1)c1ccccc1

>  <category>
f

$$$$

====

Test system: OVCAR-8 ovarian
Assay: NCI-60 one-dose screen, 48 h
Settings: 10 µM unless noted
Experimental: Growth inhibition of the OVCAR-8 human tumor cell line is measured as a screen for anti-cancer activity. Cells are grown in 96 well plates and exposed to the test compound for 48 hours. Compounds are tested at a single concentration, which is 10^-5 M for most compounds. The reported endpoint is percent growth (GI% or GIPRCNT), where numbers from 0 - 100% represent growth inhibition, and numbers from -100% - 0 represent cell death. For example, a value of 40 represents 60% growth inhibition. […]
This is part of a sample that, as a whole, favours compounds with a hit. Of some 83,000 tested, about 20% had one in any assay. Active and inactive are the calls of the source. Rule for the calls: active = growth percent below 10; inactive = the rest.
Labels: yes (1) (active), no (0) (inactive)

>  <compound>
OCCNC(=S)Nc1ccc(-c2nc(N3C[C@H]4CC[C@@H](C3)O4)c3cccn3n2)cc1

>  <category>
yes (1)

$$$$
>  <compound>
N[C@@H]1CCCN(c2c(/C=C3\SC(=O)NC3=O)cccc2-c2ccccc2)C1

>  <category>
no (0)

$$$$
>  <compound>
C=CC(=O)N1CCC[C@@H](n2nc(-c3ccc(Oc4ccccc4)cc3)c3c(N)ncnc32)C1

>  <category>
no (0)

$$$$
>  <compound>
Cc1ccc(NC(=O)c2ccc(CN3CCN(C)CC3)cc2)cc1Nc1nc(-c2cccnc2)cs1

>  <category>
no (0)

$$$$
>  <compound>
COc1cc(NC2CCC(=O)N2c2ccc(Cl)cc2Cl)cc(OC)c1OC (configuration not stated)

>  <category>
no (0)

$$$$
>  <compound>
COC(=O)[C@H](Cc1ccc(O)cc1)NC(=O)[C@@H](OC)[C@@H]1Cc2cc3cc(OC4CC(OC5CC(O)C(O)C(C)O5)C(O)C(C)O4)c(C)c(O)c3c(O)c2C(=O)[C@H]1OC1CC(OC2CC(OC3CC(C)(O)C(O)C(C)O3)C(O)C(C)O2)C(O)C(C)O1 (some centres not stated)

>  <category>
yes (1)

$$$$
>  <compound>
N#Cc1c(-c2ccc(C(F)(F)F)cc2)c(F)c(NCCC2CCC(O)C2)n2c1nc1ccccc12 (configuration not stated)

>  <category>
no (0)

$$$$
